Kindly state TGI for each of the entries shown.
- System: HL-60(TB) leukemia
- Experiment: NCI tumour cell line growth inhibition, 48 h

Measured TGI, CC(C)(Oc1cccc(N2CCC[C@@H](C(=O)N(Cc3ccc(-c4cn[nH]c4)cc3)C3CC3)C2)c1)C(=O)N1CCNCC1 : > 100 µM

Sample Nc1ccc(C2(c3ccc(N)cc3)C3CC4CC(C3)CC2C4)cc1 ; TGI observed: 46.6 µM

molecule CSc1ncc2c(C#N)c3n(C)c4ccccc4n3c(=O)c2n1 , TGI observed: > 100 µM

Reported TGI of O=C1NC(=S)NC(=O)C1=Cc1ccc([N+](=O)[O-])o1 : 87.6 µM

Documented TGI of Cc1cc(NS(=O)(=O)c2ccc(NC(=O)c3cccc4c(Nc5ccc(S(=O)(=O)Nc6cc(C)on6)cc5)c5ccc(Cl)cc5nc34)cc2)no1 : > 100 µM

// TGI value for O=C(Nc1ccc(C(F)(F)F)cc1[N+](=O)[O-])C(=O)Nn1c(=S)[nH]c2ccccc2c1=O : > 100 µM

Documented TGI of N=C1C(c2nc3ccccc3c(=O)[nH]2)=C(O)CN1c1cccc(Cl)c1 : > 100 µM

// field: TGI; key: O=C(O)CCC1C(=O)C2CCN1CC2 (stereo not given) ; value = > 100 µM

Documented TGI of COc1cccc(N2C(=N)/C(=C3\Nc4ccccc4S3)CC2=O)c1 : > 100 µM

The reported value for COc1ncnc2c(Cl)c(C(O)c3ccccc3)c(Cl)cc12 (stereo not given) in terms of TGI is > 100 µM

###

- System: SK-MEL-2 melanoma
- Experiment: NCI tumour cell line growth inhibition, 48 h
Experimental Readout: TGI

The recorded TGI for entry COc1cccc(N2C(=N)/C(=C3\Nc4ccccc4S3)CC2=O)c1 equals > 100 µM

Item: CC(O)C1(O)C(O)CC(OC2c3cc4c(c(O)c3[C@@H]3C[C@@]2(C)OC32C=c3cc[nH]c3=N2)C(=O)c2cccc(O)c2C4=O)OC1C (some centres not stated) | TGI: 3.11 µM

So, COC(=O)C(Cc1c(-c2[nH]c3ccccc3c2CC(NC(C)=O)C(=O)OC)[nH]c2ccccc12)NC(C)=O (configuration not stated) ? Its TGI was > 100 µM

Entry O=C(Nc1nc2ccc(OC(F)(F)F)cc2s1)c1ccc(F)cc1 ; TGI = 7.39 µM

According to the records, this compound C/C(=C\CNc1ncnc2c1ncn2C1CCCCO1)COP(=O)(O)O (configuration not stated) displays TGI of > 100 µM

Item: CC(C)=NC(C(=O)O)C(C)(C)S (configuration not stated) | TGI: > 100 µM

Lookup result for Cc1ccc(NC(=O)CC(=O)N2N=C(N(c3ccccc3)c3ccccc3)CC2c2ccccc2)cc1 (configuration not stated) ; measured TGI: > 100 µM

The value of TGI measured for the compound O=C1NC(=S)NC(=O)C1=Cc1ccc([N+](=O)[O-])o1 turned out to be > 100 µM

response.value for COc1ccc(/C=C/C(=O)C(=O)/C=C/c2ccc(OC)c(OC)c2)cc1OC (field: TGI) = > 100 µM

Per the records, this compound ( O=C1NC(=Nc2ccccc2Cl)N/C1=C\c1c(Cl)cccc1Cl ) has TGI equal to > 100 µM

Notebook: S=c1[nH]nc(COc2ccc(Cl)cc2)n1-c1ccccc1 , TGI read as > 100 µM

Input O=C(O)CCC1C(=O)C2CCN1CC2 (configuration not stated) . Output TGI: > 100 µM

Measured TGI of O=C(Nc1ccc(C(F)(F)F)cc1[N+](=O)[O-])C(=O)Nn1c(=S)[nH]c2ccccc2c1=O : > 100 µM

// Cc1cc2c(C(C)C)c(O)c(O)c(/C=N/O)c2c(O)c1-c1c(C)cc2c(C(C)C)c(O)c(O)c(/C=N/O)c2c1O : TGI value = 13.8 µM

The compound CSc1ccccc1NC1=NCCO1 showed TGI equal to > 100 µM

// Cc1ccc(S(=O)(=O)NC(=O)NC(CCCCN)C(=O)O)cc1 (configuration not stated) : TGI value = > 100 µM

According to the records, this compound CN(C)CC1CCCC/C1=N\OC(=O)c1ccccc1 (configuration not stated) displays TGI of > 100 µM

Form field TGI, entry COC1=CC(=O)C2=C(C1=O)[C@H]1CC[C@]3(C)C(=O)CC[C@H]3[C@@H]1CC2 : 36.3 µM

// TGI value for CC(/C=C/c1ccccc1)=N\NC(=S)N/N=C(C)/C=C/c1ccccc1 : 50.3 µM

Kindly note the recorded TGI for c1ccc(C2(c3cc4ccccc4[nH]3)OCCO2)nc1 , which is > 100 µM

Measured TGI of COC(=O)NCCc1[nH]nc2c1C(=O)C=C(Nc1ccccc1OC)C2=O : > 100 µM

Reported TGI for CCN(CC)CCOc1ccc(/C(=C(\C)Cc2ccc(OC)cc2)c2ccc(O)cc2)cc1 was 3.71 µM

###

Provide the recorded TGI for the entries that follow.
- Tested on: K-562 leukemia
- Experiment: NCI tumour cell line growth inhibition, 48 h

Short answer for O=C1NC(=NCCc2ccccc2F)S/C1=C\c1ccc2ncccc2c1 : TGI was > 25 µM

// TGI value for CCc1n[nH]c(=O)n1-n1c(C)ccc1C : > 100 µM

Record summary for COc1ccc(/C=C/C(=O)C(=O)/C=C/c2ccc(OC)c(OC)c2)cc1OC : reported TGI = > 100 µM

Documented TGI of CCCCN(CCCC)CC(C(=O)Nc1ccc([N+](=O)[O-])cc1[N+](=O)[O-])/C(C)=N\NC(=O)c1ccncc1 (stereo not drawn) : > 100 µM

Measured TGI, c1ccc(-c2sc(-c3ccccc3)c3c2C(c2ccccc2)c2c(-c4ccccc4)sc(-c4ccccc4)c2C3c2ccccc2)cc1 (stereo not drawn) : > 100 µM

Kindly note the recorded TGI for [pH]1p2[pH]p3p1p3[pH]2.c1cc[c]([Ge]([c]2ccccc2)[c]2ccccc2)cc1.c1cc[c]([Ge]([c]2ccccc2)[c]2ccccc2)cc1.c1cc[c]([Ge]([c]2ccccc2)[c]2ccccc2)cc1 , which is 43.5 µM

The recorded TGI for entry O=[N+]([O-])c1ccc(C2Nn3c(nnc3-c3cccc([N+](=O)[O-])c3)S2)cc1 (stereo not drawn) equals > 100 µM

Notebook: NNC(=O)N/N=C(/CC1(O)C(=O)Nc2ccc(Br)cc21)c1ccccc1 (stereo not drawn) , TGI read as 69.1 µM

Record summary for Nc1nc(N)c2c(Cl)c(CNc3ccc(Cl)c(Cl)c3)ccc2n1 : reported TGI = 2.97 µM

Value of measured TGI for the entry Cc1cc(C)c([O-])c(-[n+]2c(-c3ccccc3)cc(-c3ccccc3)cc2-c2ccccc2)c1 : > 100 µM

Field TGI (entry Nc1ncc(-c2ccc3ncnc(N4CCc5cc(F)c(Cl)cc54)c3c2)cc1C=O ) reads > 100 µM

Documented TGI of C=C(CN(C)C)C(=O)c1ccccc1 : 14.3 µM

Looking up C=C1[C@@H](OC(C)=O)/C=C/C2C3C(=O)[C@@](C)(OC(C)=O)[C@H]([C@H](OC(C)=O)[C@]4(O)[C@@H](C)C(=O)O[C@H]4[C@H]1Cl)[C@@]23C (stereo partly drawn) , I see its TGI listed as > 100 µM

So for Cc1cc(N(C)c2ccccc2)nc(N(C)c2ccccc2)n1 , the logged TGI turned out to be > 100 µM

The recorded TGI for COC(=O)CSc1cc(Cl)c(C)cc1S(=O)(=O)Nc1n[nH]c(N)n1 is > 10 µM

Lab note: O=C(O)c1cc(-c2ccc(-c3ccccc3)cc2)nc2cc3ccccc3cc12 gave TGI of > 100 µM

// Cn1c(=O)oc2cc(C(O)CN3CCN(Cc4ccc5c(c4)OCO5)CC3)ccc21 (stereo not drawn) : TGI value = > 100 µM

TGI reading for COc1cccc(N2C(=N)/C(=C3\Nc4ccccc4S3)CC2=O)c1 : > 100 µM

Sure, the documented TGI for Cc1ccc(N=NC(=O)NNc2ccc(C)cc2Br)c(Br)c1 is 51.5 µM

Lab book: TGI of Nc1ccc(C2(c3ccc(N)cc3)C3CC4CC(C3)CC2C4)cc1 noted as 47.4 µM

The compound listed as CCN(CC)CCOc1ccc(/C(=C(\C)Cc2ccc(OC)cc2)c2ccc(O)cc2)cc1 has a reported TGI of 3.99 µM

Lab note: measured TGI of COc1ccc(C[C@@H]2OC3(C=CC(=O)CC3Sc3ccccc3)O[C@H]2Cc2ccc(OC)cc2)cc1 (stereo partly drawn) was > 100 µM

Looking up COc1cc2c(SCCN(C)C)nc3ccccc3c2c2ccccc12 , I see its TGI listed as > 100 µM

Lab book: TGI of O=C(CC(O)(C(F)(F)F)C(F)(F)F)c1cccs1 noted as > 10 µM

Lab book: TGI of COc1ccc(/C=C/C(=O)OC2CC34CCNC35CC(OC5(OC)C2OC)c2ccc(OC)c(O)c24)cc1O (stereo not drawn) noted as > 100 µM

Lab book: TGI of CC(O)C1(O)C(O)CC(OC2c3cc4c(c(O)c3[C@@H]3C[C@@]2(C)OC32C=c3cc[nH]c3=N2)C(=O)c2cccc(O)c2C4=O)OC1C (stereo partly drawn) noted as 4.78 µM

The value of TGI measured for the compound O=c1c2ccccc2nc(-c2ccccc2)n1/N=C/c1ccccc1[N+](=O)[O-] turned out to be > 100 µM

For this compound ( CCN(CC)CC(C(C)=O)C(c1ccccc1)c1c(O)c2ccccc2oc1=O (stereo not drawn) ), measured TGI is > 100 µM

Just so you know, measured TGI for COc1cc2c3c(n(CCCNCCCCN)c(=O)c2cc1OC)-c1cc2c(cc1C3=O)OCO2 came out at > 100 µM

Memo: Fc1ccc(C2CC(c3cccc(Nc4ccncc4)c3)=NN2c2ccccc2)cc1 (stereo not drawn) , reported TGI: 6.86 µM

TGI in this record for CN1C(=O)C(O)CC1c1ccccc1F (stereo not drawn) : > 100 µM

Measured TGI, O=C(O)CCC1C(=O)C2CCN1CC2 (stereo not drawn) : > 100 µM

Short answer for CCOC(=O)C1(C)C2=CC=C(O2)C(C)(C)C2=CC=C(O2)C(C)(C)C2=CC=C(O2)C(C)(C)C2=CC=C1O2 : TGI was > 100 µM

# TGI (compound: CCCCCCCCCCCCCCCC(=O)OCC1OC(OCCCC)[C@H](O[C@@H]2OC(C)C(OC(=O)CCC)C(O)C2O)C(O)C1O (stereo partly drawn) ) is 31.6 µM

The measured TGI associated with C=C1C2CCCC1C1(S(C)(=O)=O)CCCCC21O (stereo not drawn) reads > 100 µM

Reported TGI ( CC(=O)NNc1nc(C)c(C(=O)/C=C/c2ccc(N(C)C)cc2)s1 ) = > 100 µM

Form: compound = Cc1cc(NS(=O)(=O)c2ccc(NC(=O)c3cccc4c(Nc5ccc(S(=O)(=O)Nc6cc(C)on6)cc5)c5ccc(Cl)cc5nc34)cc2)no1 ; TGI = > 100 µM

Lookup result for CSc1ncc2c(C#N)c3n(C)c4ccccc4n3c(=O)c2n1 ; measured TGI: > 100 µM
